# target desc: FLT3 (Homo sapiens)
# Sequence (P36888 27-993): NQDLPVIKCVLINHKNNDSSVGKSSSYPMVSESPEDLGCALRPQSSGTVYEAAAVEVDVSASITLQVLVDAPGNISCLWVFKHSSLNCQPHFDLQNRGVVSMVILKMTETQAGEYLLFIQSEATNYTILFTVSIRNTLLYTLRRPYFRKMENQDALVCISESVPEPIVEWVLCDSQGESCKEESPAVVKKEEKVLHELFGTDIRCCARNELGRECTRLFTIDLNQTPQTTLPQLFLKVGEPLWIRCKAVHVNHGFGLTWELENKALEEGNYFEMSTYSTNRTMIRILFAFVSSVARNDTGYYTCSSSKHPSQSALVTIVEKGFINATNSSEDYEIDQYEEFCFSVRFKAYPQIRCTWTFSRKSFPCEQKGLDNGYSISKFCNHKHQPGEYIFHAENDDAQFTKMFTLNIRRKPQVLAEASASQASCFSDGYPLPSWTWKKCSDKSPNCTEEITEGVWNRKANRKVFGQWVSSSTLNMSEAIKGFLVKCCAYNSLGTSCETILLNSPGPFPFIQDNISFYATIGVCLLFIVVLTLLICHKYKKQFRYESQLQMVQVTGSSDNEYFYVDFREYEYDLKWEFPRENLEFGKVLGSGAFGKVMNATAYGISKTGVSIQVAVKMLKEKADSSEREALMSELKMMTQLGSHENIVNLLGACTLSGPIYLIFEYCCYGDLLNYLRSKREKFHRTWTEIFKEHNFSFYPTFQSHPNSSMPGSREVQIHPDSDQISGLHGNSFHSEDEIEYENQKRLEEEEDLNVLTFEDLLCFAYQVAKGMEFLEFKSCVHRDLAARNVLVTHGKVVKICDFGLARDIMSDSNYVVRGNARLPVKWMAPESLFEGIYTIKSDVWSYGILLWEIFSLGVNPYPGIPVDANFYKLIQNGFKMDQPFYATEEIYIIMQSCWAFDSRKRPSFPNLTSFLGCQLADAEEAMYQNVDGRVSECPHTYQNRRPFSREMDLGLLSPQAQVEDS
pIC50: −log10 of the molar value.
measurement type: pIC50

{"compound": "Brc1ccc(-c2cnc(Nc3cccc4ccccc34)o2)cc1 [AIU2001]", "target desc": "FLT3 (Homo sapiens)", "value reported": 6.69}

* * *

# target desc: FLT3 (ITD) (Homo sapiens, UniProt P36888, ITD)
# assay details: In vitro kinase assay, IC50 (Reaction Biology Corp.)

{"smi": "Brc1ccc(-c2cnc(Nc3cccc4ccccc34)o2)cc1", "IC50 [nM]": 63.2}

* * *

# target desc: FLT3(D835Y) (Homo sapiens, UniProt P36888, D835Y)
# assay details: In vitro kinase assay, IC50 (Reaction Biology Corp.)

{"compound": "Brc1ccc(-c2cnc(Nc3cccc4ccccc34)o2)cc1 [AIU2001]", "target desc": "FLT3(D835Y) (Homo sapiens, UniProt P36888, D835Y)", "IC50": "108 nM"}
